target_or_system: human PAH with the R408W mutation (Homo sapiens, UniProt P00439, R408W)
Construct: expressed in transfected cells
Sequence (P00439 1-452 R408W): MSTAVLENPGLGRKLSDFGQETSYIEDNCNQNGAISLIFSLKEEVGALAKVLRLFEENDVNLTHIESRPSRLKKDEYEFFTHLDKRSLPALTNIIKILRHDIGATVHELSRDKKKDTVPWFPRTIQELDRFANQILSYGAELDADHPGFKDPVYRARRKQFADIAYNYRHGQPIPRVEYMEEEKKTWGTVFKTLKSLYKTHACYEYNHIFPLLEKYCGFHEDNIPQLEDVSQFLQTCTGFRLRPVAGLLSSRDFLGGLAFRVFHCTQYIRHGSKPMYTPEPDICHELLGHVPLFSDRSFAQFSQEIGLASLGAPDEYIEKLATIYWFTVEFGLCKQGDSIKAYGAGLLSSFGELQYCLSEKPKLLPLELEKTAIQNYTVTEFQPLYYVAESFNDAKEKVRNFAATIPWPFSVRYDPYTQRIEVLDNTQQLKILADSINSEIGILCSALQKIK
test_summary: Cell Based Phenylalanine Flux Assay
assay_setup: A375 cells expressing human R408W PAH; 24 hrs compound incubation; 13C-Tyrosine by LC-MS; average where tested multiple times; read-out: AC50
experimental_endpoint: AC50

Consider the reported AC50 for these compounds:
compound: N#Cc1ncoc1C(=O)N1CCc2[nH]cnc2[C@H]1c1ncc2ccccc2n1
AC50: < 500 nM

compound: O=C(c1cnc(-c2ccccn2)o1)N1CCc2[nH]cnc2[C@@H]1c1cc2ccccc2cn1
AC50: > 5000 nM

compound: O=C(c1cnn2cc(Br)c(Cl)cc12)N1CCc2[nH]cnc2[C@H]1c1cc2ccccc2cn1
AC50: < 500 nM

compound: CC(C)(F)c1nnc(C(=O)N2CCc3[nH]cnc3[C@H]2c2ncc3ccccc3n2)o1
AC50: 500 to 1000 nM

compound: O=C(CC1CC1)N1CCc2[nH]cnc2[C@H]1c1cn2ccccc2n1
AC50: < 500 nM

get_value(item= "O=C(c1nnc(-c2cccnc2)o1)N1CCc2[nH]cnc2[C@@H]1c1ncc2ccccc2n1" , readout=AC50) returns 1000 to 5000 nM

get_value(item= O=C(c1cnc(-c2ccccn2)o1)N1CCc2[nH]cnc2C1c1ccc2ccccc2n1 (stereo in doubt) [Example 62] , readout=AC50) returns > 5000 nM

get_value(item= "Cc1nc(-c2ccccn2)oc1C(=O)N1CCc2[nH]cnc2[C@H]1c1ncc2ccccc2n1" , readout=AC50) returns < 500 nM

* * *

target_or_system: human PAH with the R408W mutation (Homo sapiens, UniProt P00439, R408W)
Construct: expressed in transfected cells
Sequence (P00439 1-452 R408W): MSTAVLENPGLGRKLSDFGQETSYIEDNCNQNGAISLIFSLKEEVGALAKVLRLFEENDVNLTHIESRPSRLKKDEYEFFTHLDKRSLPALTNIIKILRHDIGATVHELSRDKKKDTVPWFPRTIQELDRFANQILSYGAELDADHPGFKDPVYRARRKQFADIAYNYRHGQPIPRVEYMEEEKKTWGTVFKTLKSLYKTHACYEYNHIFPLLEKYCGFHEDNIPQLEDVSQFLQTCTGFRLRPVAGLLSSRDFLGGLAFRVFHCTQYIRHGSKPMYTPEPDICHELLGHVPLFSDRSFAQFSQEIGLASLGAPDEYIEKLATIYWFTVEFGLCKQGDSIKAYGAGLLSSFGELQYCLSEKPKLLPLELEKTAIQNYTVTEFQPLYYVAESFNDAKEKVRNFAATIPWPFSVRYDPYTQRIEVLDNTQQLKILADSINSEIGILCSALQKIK
test_summary: Cell Based Phenylalanine Flux Assay
assay_setup: A375 R408W cells, 24 hrs with compound, then 20 μM sepiapterin and 800 μM 13C9,15N-Phenylalanine for 4 hours; 13C-Tyrosine by LC-MS; average where tested multiple times; read-out: AC50
# key: entry, value: AC50

molecule: Cc1nc(N(C)C)oc1C(=O)N1CCc2[nH]cnc2[C@H]1c1ccc2ccccc2n1 (single isomer, unassigned)
observed: > 5 µM
//
molecule: O=C(CCc1nc2ccccc2o1)N1CCc2[nH]cnc2C1c1cn2ccccc2n1 (stereo not shown)
observed: 1 to 5 µM

get_value(item= Cc1cc(F)ccc1-c1nnc(C(=O)N2CCc3[nH]cnc3C2c2ccc3ccccc3n2)o1 (stereo not shown) , readout=AC50) returns 1 to 5 µM

get_value(item= CC(C)(O)c1ncc(C(=O)N2CCc3[nH]cnc3C2c2ccc3ccccc3n2)s1 (stereo not shown) , readout=AC50) returns 1 to 5 µM

get_value(item= O=C(c1nnc(C2CC(F)(F)C2)o1)N1CCc2[nH]cnc2C1c1ccc2ccccc2n1 (stereo not shown) , readout=AC50) returns 1 to 5 µM

get_value(item= "O=C(c1nnc(-c2cnn(S(=O)(=O)C3CC3)c2)o1)N1CCc2[nH]cnc2[C@H]1c1cc2ccccc2cn1" , readout=AC50) returns > 5 µM

get_value(item= O=C(Cc1coc(C(F)F)n1)N1CCc2nc[nH]c2[C@H]1c1cn2ccccc2n1 (single isomer, unassigned) , readout=AC50) returns > 5 µM

get_value(item= CN1CCN(c2nnc(C(=O)N3CCc4[nH]cnc4C3c3cn4ccccc4n3)o2)CC1 (stereo not shown) , readout=AC50) returns > 5 µM
